Measured Population Tubulin-Different-Phenotype (%) accompanies every entry in the list below.
- Tested on: U2OS
- protocol.notes: Multiplex assay against U2OS
- Type: toxicity, cell-based
- condition.label: human, 24 h, 1 µM, compound concentration 1 uM, replicate 2
Answer with a number only, understood to be in %.

Here's what some known entries look like.
• Nc1ccc(C(=O)Nc2cccc(-c3nc(N4CCOCC4)c4oc5ncccc5c4n3)c2)cn1 = 27
• Cc1cn(-c2cc(NC(=O)c3ccc4c(c3)CN(c3cncnc3)C[C@@H]4C)cc(C(F)(F)F)c2)cn1 = 34
• Cc1cc2c(cc1N1C(=O)c3cccc4c(CCCO)ccc(c34)C1=O)n(C)c(=O)n2C = 17

Field: next compound
The compound identified as CCOc1cc(N2CCC(O)CC2)ccc1Nc1ncc2c(n1)N(C1CCCC1)CCC(=O)N2C registered its Population Tubulin-Different-Phenotype (%) at 20

---

- System: HEK-293T
- protocol.notes: Incucyte cell viability with HEK293T; further: filed as whole numbers so only -1 and 0 and 1 occur
- Format: toxicity, cell-based
- condition.label: human, 0 h, 10 µM, compound concentration 10 uM, replicate number 1, timepoint 0 hours
Measured Growth Rate accompanies every entry in the list below.

Reference set, count: 4
• Nc1nc2c(c(N3CCNCC3)n1)CCC1=C2[C@@H]2CCCC[C@@H]2O1 = 0
• CCC(=O)N[C@@H]1CC[C@H](C(=O)N(C)c2ccc(-c3nc4ccccc4o3)cc2)C1 = 0
• CC(C)Oc1ccc(-c2nn([C@@H](C)c3oc4ccc(F)cc4c(=O)c3-c3cccc(F)c3)c3ncnc(N)c23)cc1F = 1
• CC(C)Oc1ccc(C(=O)N[C@H](CNC(=O)CN(C)C)Cc2ccc(-c3cn4cccc([C@H](C)O)c4n3)cc2)cc1Cl [GSK-923295A] = 0

Entry COc1ccccc1C(=O)Nc1cc2c(cc1N1CCCC1)n(C)c(=O)n2C ; Growth Rate = 0

Given item O=C(O)c1ccc2c(c1)nc(Nc1cccc(Cl)c1)c1ccncc12 , the value recorded as its Growth Rate is 0

---

- Test system: U2OS
- protocol.notes: Incucyte cell viability with U2OS; further: filed as whole numbers so only -1 and 0 and 1 occur
- Type: toxicity, cell-based
- condition.label: human, 24 h, 10 µM, compound concentration 10 uM, replicate number 1, timepoint 24 hours
endpoint.label: Growth Rate
# answer = number (no unit)

* Nc1nc(NCCc2ccc(O)cc2)nc2nc(-c3ccco3)nn12 | 0

In plain terms, Nc1ccc(C(=O)Nc2cccc(-c3nc(N4CCOCC4)c4oc5ncccc5c4n3)c2)cn1 has a documented Growth Rate of 0

compound N#CC1(c2ccccn2)CCN(Cc2cc(C(=O)N3CCCC3)c(=O)n3ccccc23)CC1 , Growth Rate observed: 0

Lab note: measured Growth Rate of Cc1cc(SCc2sc(-c3ccc(C(F)(F)F)c(F)c3)nc2C)ccc1OCC(=O)O was 1

---

- Test system: HEK-293T
- protocol.notes: Incucyte cell viability with HEK293T; further: filed as whole numbers so only -1 and 0 and 1 occur
- Assay type: toxicity, cell-based
- condition.label: human, 6 h, 10 µM, compound concentration 10 uM, replicate number 1, timepoint 6 hours
endpoint.label: Growth Rate

Example cases with answers are listed next.
- c1ccc2oc(-c3csc(C4CCN(Cc5nc6ncccc6[nH]5)CC4)n3)cc2c1: 0
- CCCOc1ccc([C@@H]2[C@@H](C(=O)O)[C@H](c3ccc4c(c3)OCO4)CN2CC(=O)Nc2c(CC)cccc2CC)cc1: 1
- COc1ccc(NS(=O)(=O)c2sc3ccc(Cl)cc3c2C)cc1N1CCNCC1.Cl: 0
- CN(C(=O)Cc1ccc(Cl)c(Cl)c1)C(CN1CCCC1)c1cccc(OCC(=O)O)c1.Cl (stereo not drawn): 1
- CN(C)CCOc1ccc(-c2nc(-c3ccncc3)c(-c3ccc4c(c3)CC/C4=N\O)[nH]2)cc1: 0
- CNc1nc(Nc2cnn([C@H]3CCN(C4COC4)C[C@@H]3F)c2Cl)ncc1C(F)(F)F: 0

Kindly note the recorded Growth Rate for CCC(=O)O[C@]1(C(=O)SCF)[C@H](C)C[C@H]2[C@@H]3C[C@H](F)C4=CC(=O)C=C[C@]4(C)[C@@]3(F)[C@@H](O)C[C@@]21C [FLUTICASONE PROPIONATE] , which is 0

Record CCOC(=O)c1cc(C#N)c(N2CCC(C(=O)NS(=O)(=O)Cc3ccccc3)CC2)nc1C , field Growth Rate: 0

Given item Cc1cc(C)cc(C(=O)N(C)[C@H](Cc2ccc(-c3ccccc3)cc2)C(=O)N[C@@H](Cc2c[nH]c3ccccc23)C(=O)O)c1 , the value recorded as its Growth Rate is 0

Data point: COc1ccc(/C=C/CCCCOc2ccc(C(=O)c3cccc(C(=O)O)c3)cc2CCC(=O)O)cc1 ; Growth Rate = 1

The value of Growth Rate measured for the compound CN(C)C(=O)Cn1cc(-c2nc(C3(c4ccc(-c5cnc(N)nc5)cc4)CC3)no2)cn1 turned out to be 0

The compound listed as Cc1cc(SCc2sc(-c3ccc(C(F)(F)F)c(F)c3)nc2C)ccc1OCC(=O)O has a reported Growth Rate of 1

Briefly, Growth Rate measured for CCCCC[C@H](O)/C=C/[C@@H]1[C@@H](C/C=C\CCCC(=O)O)[C@@H](O)C[C@H]1O : 0

---

- Tested on: U2OS
- protocol.notes: Multiplex assay against U2OS
- Assay type: toxicity, cell-based
- condition.label: human, 12 h, 1 µM, compound concentration 1 uM, replicate 1
endpoint.label: Population Hoechst High Intensity Objects (%)
Don't forget the unit after the value.

These recorded examples may help you get a feel for the data.
- Cc1nc(Cc2cccc(C(F)(F)F)c2)sc1-c1ccc(C(N)=O)nc1 [TP-024n]: 5%
- Cl.Cl.Nc1ncnc2c1c(-c1cccc(OCc3ccccc3)c1)cn2[C@H]1C[C@@H](CN2CCC2)C1: 5%
- CCc1cc2c(cc1CC)CC(NC[C@H](O)c1ccc(O)c3[nH]c(=O)ccc13)C2: 7%
- CC(=O)c1cc(-c2cc(C(=O)NC3CC3)ccc2C)c2ncccn12: 5%

Okay, now this molecule:
Recorded result, CCC(=O)O[C@]1(C(=O)SCF)[C@H](C)C[C@H]2[C@@H]3C[C@H](F)C4=CC(=O)C=C[C@]4(C)[C@@]3(F)[C@@H](O)C[C@@]21C [FLUTICASONE PROPIONATE] , Population Hoechst High Intensity Objects (%): 5%

---

- Tested on: HEK-293T
- protocol.notes: Multiplex assay against HEK293T
- Type: toxicity, cell-based
- condition.label: human, 24 h, 1 µM, compound concentration 1 uM, replicate 1
endpoint.label: Population Normal (%)
# unit: % | format: bare number

// worked examples, Population Normal (%) included
• Cc1cc2c(cc1N1C(=O)c3cccc4c(CCCO)ccc(c34)C1=O)n(C)c(=O)n2C = 87
• CCOc1cc(N2CCC(O)CC2)ccc1Nc1ncc2c(n1)N(C1CCCC1)CCC(=O)N2C = 92
• COc1cc2c(Nc3ccc(NC(=O)c4ccccc4)cc3)ncnc2cc1OCCCN1CCOCC1 = 78
• Cl.Cl.Nc1ncnc2c1c(-c1cccc(OCc3ccccc3)c1)cn2[C@H]1C[C@@H](CN2CCC2)C1 = 75
• CN(C)CCOc1ccc(-c2nc(-c3ccncc3)c(-c3ccc4c(c3)CC/C4=N\O)[nH]2)cc1 = 75

For the compound CC(C)(C)c1cnc(CSc2cnc(NC(=O)C3CCNCC3)s2)o1 , the measured Population Normal (%) on HEK-293T was 79

The value of Population Normal (%) recorded for COc1ccc(NS(=O)(=O)c2sc3ccc(Cl)cc3c2C)cc1N1CCNCC1.Cl when tested on HEK-293T reads 60

Measured Population Normal (%) (HEK-293T), entry N#Cc1cnc(Nc2cc(NC[C@H]3CNCCO3)c(C(F)(F)F)cn2)cn1 : 92

Given the compound CC(=O)c1cc(-c2cc(C(=O)NC3CC3)ccc2C)c2ncccn12 and test system HEK-293T, the measured Population Normal (%) is 86

Let me check: CC(C)Oc1ccc(C(=O)N[C@H](CNC(=O)CN(C)C)Cc2ccc(-c3cn4cccc([C@H](C)O)c4n3)cc2)cc1Cl [GSK-923295A] , system HEK-293T, measured Population Normal (%) is 92

Let me check: CNc1oc(-c2cccc3ccccc23)nc1C#N , system HEK-293T, measured Population Normal (%) is 70

The compound c1ccc2oc(-c3csc(C4CCN(Cc5nc6ncccc6[nH]5)CC4)n3)cc2c1 on HEK-293T: Population Normal (%) was 84

Record Nc1nc2c(c(N3CCNCC3)n1)CCC1=C2[C@@H]2CCCC[C@@H]2O1 / HEK-293T, Population Normal (%) recorded as 89

Assay HEK-293T, sample Cc1cn(-c2cc(NC(=O)c3ccc4c(c3)CN(c3cncnc3)C[C@@H]4C)cc(C(F)(F)F)c2)cn1 , Population Normal (%) read: 84

Let me check: CN(C)C/C=C/C(=O)Nc1cc2c(Nc3ccc(F)c(Cl)c3)ncnc2cc1O[C@H]1CCOC1.O=C(O)/C=C\C(=O)O.O=C(O)/C=C\C(=O)O [AFATINIB DIMALEATE] , system HEK-293T, measured Population Normal (%) is 89

From: ChEMBL document CHEMBL4689842
